Test system: HeLa
assayProtocol: Antiproliferative activity against human HeLa cells incubated for 48 hrs by MTT assay
Assay type: functional, cell-based
Here the recorded IC50 is given for each entry.

Cc1cnc(Nc2ccc(S(C)(=O)=O)cc2)nc1Nc1nc2ccc(F)cc2s1 | > 50 µM
Cc1cnc(Nc2ccc(Cl)cc2)nc1Nc1nc2ccccc2s1 | > 50 µM
NS(=O)(=O)c1ccc(Nc2ncc(F)c(Nc3nc4ccc(Cl)cc4s3)n2)cc1 | 8.77 µM
CS(=O)(=O)c1ccc(Nc2ncc(F)c(Nc3nc4ccc(Cl)cc4s3)n2)cc1 | > 50 µM

Query: IC50; subject: CS(=O)(=O)c1ccc(Nc2ncc(F)c(Nc3nc4ccc(F)cc4s3)n2)cc1
> 50 µM

====

This listing pairs compounds with measured inhibition.
tgt: CDK2/Cyclin A2 (Homo sapiens) (UniProt P24941+P20248)
assayProtocol: Inhibition of CDK2/cyclin A2 (unknown origin) using histone H1 and ATP as substrate at 1 uM incubated for 40 mins by kinase-glo luminescence assay relative to control
Type: protein-complex assay
Please state the value followed by its unit.

NS(=O)(=O)c1ccc(Nc2nccc(Nc3nc4ccccc4s3)n2)cc1 | 84%
NS(=O)(=O)c1ccc(Nc2nccc(Nc3nc4ccc(F)cc4s3)n2)cc1 | 94%
Cc1ccc2nc(Nc3nc(Nc4ccc(S(N)(=O)=O)cc4)ncc3F)sc2c1 | 92%

Could you tell me which inhibition is on file for NS(=O)(=O)c1ccc(Nc2ncc(F)c(Nc3nc4ccccc4s3)n2)cc1 ?
93%

Form field: reported inhibition of Cc1ccc2nc(Nc3ccnc(Nc4ccc(S(N)(=O)=O)cc4)n3)sc2c1
82%

Looking for the measured inhibition of CS(=O)(=O)c1ccc(Nc2ncc(F)c(Nc3nc4ccccc4s3)n2)cc1 , can you help?
95%

Quick check: inhibition of Cc1cnc(Nc2ccc(S(N)(=O)=O)cc2)nc1Nc1nc2ccc(Cl)cc2s1 ?
90%

Look at this compound and give its reported inhibition. Cc1cnc(Nc2ccc(S(C)(=O)=O)cc2)nc1Nc1nc2ccccc2s1
90%

Using the record for Cc1ccc2nc(Nc3ccnc(Nc4ccc(S(C)(=O)=O)cc4)n3)sc2c1 , report its inhibition.
77%

State the recorded inhibition for this entry: CS(=O)(=O)c1ccc(Nc2nccc(Nc3nc4ccc(F)cc4s3)n2)cc1
89%

Which inhibition value belongs to Cc1cnc(Nc2ccc(S(N)(=O)=O)cc2)nc1Nc1nc2ccccc2s1 ?
91%

Given the entry Cc1cnc(Nc2ccc(S(C)(=O)=O)cc2)nc1Nc1nc2ccc(Cl)cc2s1 , report its measured inhibition.
81%

Look up inhibition: CS(=O)(=O)c1ccc(Nc2nccc(Nc3nc4ccccc4s3)n2)cc1
80%

====

System: MCF7
assayProtocol: Antiproliferative activity against human MCF7 cells incubated for 48 hrs by MTT assay
Assay type: functional, cell-based
testSettings: MCF7, 48 h
As shown below, each of these compounds has a reported pIC50 value.
Hey, just a heads up that pIC50 is the negative log base 10 of the concentration in molar.

Recorded results for 3 compounds are shown here.
CS(=O)(=O)c1ccc(Nc2ncc(F)c(Nc3nc4ccccc4s3)n2)cc1 | 5.16
Cc1cnc(Nc2ccc(S(C)(=O)=O)cc2)nc1Nc1nc2ccc(Cl)cc2s1 | 5.36
NS(=O)(=O)c1ccc(Nc2ncc(F)c(Nc3nc4ccc(Cl)cc4s3)n2)cc1 | 5.08

# input for lookup
So what does the record say about pIC50 for COc1ccc2nc(Nc3ccnc(Nc4ccc(S(N)(=O)=O)cc4)n3)sc2c1 ?
4.96
